- assay-system: human BACE1 (sproBACE1) (Homo sapiens, UniProt P56817)
- Construct: sBACE1, corresponding to amino acids 1-454; made in house; host or cells: Sf9 insect cells (baculovirus), secreted into the medium
- Sequence (P56817 22-454): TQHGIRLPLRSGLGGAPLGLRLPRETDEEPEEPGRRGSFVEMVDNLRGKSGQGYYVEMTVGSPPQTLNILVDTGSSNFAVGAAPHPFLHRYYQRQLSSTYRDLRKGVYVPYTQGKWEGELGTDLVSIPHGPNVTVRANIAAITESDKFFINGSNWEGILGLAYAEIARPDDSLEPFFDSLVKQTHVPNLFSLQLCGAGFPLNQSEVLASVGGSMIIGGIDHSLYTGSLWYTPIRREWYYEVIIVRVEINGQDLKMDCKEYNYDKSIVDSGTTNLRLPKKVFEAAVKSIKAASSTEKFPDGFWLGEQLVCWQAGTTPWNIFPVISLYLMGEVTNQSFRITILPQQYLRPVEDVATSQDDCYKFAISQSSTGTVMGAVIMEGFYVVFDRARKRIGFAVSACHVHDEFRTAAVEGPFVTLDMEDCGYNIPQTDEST
- assay-info: BACE-1 Peptide Hydrolysis Assay (HTRF)
- Format: biochemical
- measurement-context: read-out: BACE-1 Ki
pKi: −log10 of the molar value.
experimental-endpoint: pKi

Need pKi of N=C1NC(c2cccc(-c3cccc(Cl)c3)c2)(C2CC2)C(=O)N1CC(F)(F)F (centres unmarked) , thanks. > 5.30

Looking for the measured pKi of "CN1C(=N)N[C@](C)(c2cc(-c3cccc(F)c3)c3sccc3c2)CC1=O" , can you help? > 5.30

So what does the record say about pKi for "CN1C(=N)N[C@](CCC2CCCCC2)(C[C@H]2CCC[C@@H](NCCc3ccccc3)C2)C1=O" ? > 5.30

Which value of pKi has been reported for "CN1C(=N)N[C@](C)(c2cccc(N3CCCCC3)c2)CC1=O" in the records? > 5.30

Looking for the measured pKi of "CN1C(=N)N[C@@](c2cccc(-c3cc(Br)ccn3)c2)(C2CC2)C1=O" , can you help? > 5.30

Entry source: patent US8183252B2
